All values here come from patent US20250064983A1.

EC50 (inhibition of CaMKIIδ activity, ADP-GLO bioluminescent ADP monitoring assay) reference
target: CaMKIIδ, Q13557; test: cell-based or functional assay
Sequence (Q13557 whole entry, stated change not applied): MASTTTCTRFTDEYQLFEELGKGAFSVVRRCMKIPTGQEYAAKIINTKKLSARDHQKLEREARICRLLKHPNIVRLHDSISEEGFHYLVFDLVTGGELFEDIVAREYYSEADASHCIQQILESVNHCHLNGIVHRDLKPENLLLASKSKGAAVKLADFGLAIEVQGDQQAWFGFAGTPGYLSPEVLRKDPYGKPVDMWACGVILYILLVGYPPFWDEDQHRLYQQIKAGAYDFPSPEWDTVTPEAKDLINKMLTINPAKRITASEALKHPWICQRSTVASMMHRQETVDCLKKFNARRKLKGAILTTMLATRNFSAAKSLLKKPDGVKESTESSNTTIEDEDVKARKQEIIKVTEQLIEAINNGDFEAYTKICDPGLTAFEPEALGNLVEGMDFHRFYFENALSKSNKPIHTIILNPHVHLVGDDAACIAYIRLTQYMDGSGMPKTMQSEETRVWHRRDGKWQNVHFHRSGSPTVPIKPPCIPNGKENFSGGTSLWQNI
Please respond with the number in µM and leave the unit unwritten.

Recorded EC50 (inhibition of CaMKIIδ activity, ADP-GLO bioluminescent ADP monitoring assay) of YKKALHRQEAVDALYKKALHRQEAVDALYKKALHRQEAVDAL [AIPx3 multimer] , please.
0.543

Subsequent entry: YKKALHRQEAVDAL [autocamtide-2-related inhibitory peptide (AIP)]
6.15

// next item, EC50 (inhibition of CaMKIIδ activity, ADP-GLO bioluminescent ADP monitoring assay) requested
Recorded EC50 (inhibition of CaMKIIδ activity, ADP-GLO bioluminescent ADP monitoring assay) of KRAPKLGQIGRQKAVDIED [CN19o] , please.
0.0016
